Where do these numbers come from? They come from patent US11254688B2.

target: hGOAT (Homo sapiens, UniProt Q96T53); construct: expressed in transfected cells; host or cells: HEK293 (Hek293 hGOAT/PPGhrl Clone #1B8); test: Determination of hGOAT activity in HEK293 cells after incubation with test compound (acyl-ghrelin ELISA); format: cell-based; settings: HEK293 cells stably transfected with preproghrelin and human GOAT; octanoate-BSA 100 μM; 5 hours incubation; acyl-ghrelin in medium by ELISA; 8 compound concentrations
Sequence (Q96T53 whole entry): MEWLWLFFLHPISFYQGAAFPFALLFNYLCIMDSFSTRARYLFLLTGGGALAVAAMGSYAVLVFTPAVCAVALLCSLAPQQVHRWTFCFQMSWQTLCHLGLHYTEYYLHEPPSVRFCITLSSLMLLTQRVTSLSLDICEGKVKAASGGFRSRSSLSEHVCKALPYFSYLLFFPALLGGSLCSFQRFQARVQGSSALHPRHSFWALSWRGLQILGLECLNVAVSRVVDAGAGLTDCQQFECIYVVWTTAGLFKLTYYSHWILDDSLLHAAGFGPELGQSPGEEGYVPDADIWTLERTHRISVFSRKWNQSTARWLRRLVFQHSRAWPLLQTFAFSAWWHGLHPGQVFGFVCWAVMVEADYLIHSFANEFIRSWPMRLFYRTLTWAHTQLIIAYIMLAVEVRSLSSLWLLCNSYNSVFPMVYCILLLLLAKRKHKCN
measured_quantity: IC50 (nM)

{"molecule": "COc1cc(Cc2c(Cl)nc3nonc3c2N)ccc1Br [Compound 23.6]", "IC50 (nM)": 0.078}
{"molecule": "Cc1nc2nonc2c(N)c1Cc1ccnc(C#N)c1 [Compound 4.39]", "IC50 (nM)": 9.39}
{"molecule": "Cc1nc2nonc2c(N)c1Cc1ccc(C#N)c(OC2CCN(C)C2)c1 (centres unmarked) [Compound 21.8]", "IC50 (nM)": 1.09}

A: Cc1nc2nonc2c(N)c1Cc1ccc([S+](C)[O-])cc1 (centres unmarked) [Compound 18.1]
B: Cc1nc2nonc2c(N)c1Cc1cnc(Cl)cc1C(F)F [Compound 25.2]
Please choose the item with the lower IC50 value from this pair: A and B The response must carry the label of the picked entry. A
(A: 0.921 nM, B: 4.84 nM)

A: Nc1c(Cc2ccc(Br)cc2)c(Cl)nc2nonc12 [Compound 23.1]
B: Cc1nc2nonc2c(N)c1Cc1ccc(Cl)nc1C(F)F [Compound 25.1]
Input pair: A , B . Output: entry with lower IC50. Reply briefly: the label of your chosen item. A

A: Cc1nc2nonc2c(N)c1Cc1ccc(F)c(Br)c1 [Compound 4.44]
B: Cc1nc2nonc2c(N)c1Cc1ccc(-c2c(C)noc2C)n2cnnc12 [Compound 12.11]
Sorting by IC50 in descending order, would A or B appear first? Which one? Tell me its label. B
(B: 1.31 nM, A: 0.573 nM)

I: Cc1nc2nonc2c(N)c1C(=O)c1ccc(C(F)(F)F)cc1 [Compound 3.1]
II: Cc1nc2nonc2c(N)c1Cc1ccc(C(C)(C)C#N)nc1 [Compound 4.24]
III: Cc1nc2nonc2c(N)c1Cc1ccc(-c2ccc(C#N)s2)nc1 [Compound 12.5]
IV: Cc1nc2nonc2c(N)c1Cc1ccc(OC(F)(F)F)c(C(N)=O)c1 [Compound 15.2]
V: Cc1nc2nonc2c(N)c1Cc1cnc(Cl)c(C(F)(F)F)c1 [Compound 25.4]
# ascending order, key=IC50 Response format: the labels, sorted as the prompt asks. IV, II, V, III, I

A: Cc1nc2nonc2c(N)c1Cc1ccc2nccn2c1 [Compound 4.20]
B: Cc1nc2nonc2c(N)c1Cc1ccc(C#N)c(OC(F)(F)F)c1 [Compound 4.43]
C: COc1cc(OC(F)(F)F)ccc1Cc1c(C)nc2nonc2c1N [Compound 2.1]
Highest IC50 first, then in falling order down to the smallest. Answer by writing out the labels in the requested order. A, C, B

A: Cc1nc2nonc2c(N)c1Cc1ccc(-c2cncn2C)nc1 [Compound 12.8]
B: Cc1nc2nonc2c(N)c1Cc1ccc(C2(C#N)CC2)nc1 [Compound 4.8]
API: POST /compare with A and B ; response names the item with higher IC50. Output the label that corresponds to your choice. B
(B: 1.41 nM, A: 0.531 nM)

====

target: hGOAT (Homo sapiens, UniProt Q96T53); test: Determination of hGOAT activity in HEK293 cells after incubation with test compound (acyl-ghrelin ELISA); settings: HEK293 cells stably transfected with preproghrelin and human GOAT; octanoate-BSA 100 μM; 5 hours incubation; acyl-ghrelin in medium by ELISA; 8 compound concentrations
pIC50: −log10 of the molar value.
measured_quantity: pIC50

a: Cc1nc2nonc2c(N)c1Cc1cnc(C(F)(F)F)c(C#N)c1 [Compound 4.60]
b: Cc1nc2nonc2c(N)c1Cc1ccc(Br)cc1 [Compound 1.1]
c: Cc1nc2nonc2c(N)c1Cc1ccc(CC#N)cc1 [Compound 2.15]
// sort listed items: pIC50 descending Present the labels in the sequence the task asks for. b, c, a
(b: 9.65, c: 9.05, a: 8.17)

P: Cc1nc2nonc2c(N)c1Cc1ccc(C(=O)NCC(C)O)cc1 (centres unmarked) [Compound 14.15]
Q: Cc1nc2nonc2c(N)c1Cc1ccc(C#N)c(OCC2(C(F)(F)F)CC2)c1 [Compound 21.7]
Min pIC50? P | Q Pick one and reply with its label. P
